Provenance of the data: patent US9499530B2

# System: human lung cancer A549 xenograft
# PROTOCOL: Growth inhibition of A549 xenograft in nude mice
# Format: in vivo
# APPLIED_CONDITIONS: nude mice with A549 xenograft, 200 mg/kg intragastric, start of dosing
PARAMETER_MEASURED: Weight (g) Start
Give bare numbers, in g.

Solved entries:
MOLECULE | Weight (g) Start
O=C(O)CCC(NCc1ccc(-c2ccc3ncnc(Nc4ccc(OCc5cccc(F)c5)c(Cl)c4)c3c2)o1)C(=O)O (centres unmarked) | 25.3
OCCNCc1ccc(-c2ccc3ncnc(Nc4ccc(OCc5cccc(F)c5)c(Cl)c4)c3c2)o1 [MS27·dimethanesulfonate] | 25.0
CS(=O)(=O)CCNCc1ccc(-c2ccc3ncnc(Nc4ccc(OCc5cccc(F)c5)c(Cl)c4)c3c2)o1 [Lapatinib, lapatinib, reference compound] | 24.1

Required: Weight (g) Start, one value per molecule below.
1. OCC(CO)NCc1ccc(-c2ccc3ncnc(Nc4ccc(OCc5cccc(F)c5)c(Cl)c4)c3c2)o1 [MS6·dimethanesulfonate]
2. CCCNCc1ccc(-c2ccc3ncnc(Nc4ccc(F)c(Cl)c4)c3c2)o1

## Output
1. 24.9
2. 24.5

----------
So I've got a bunch of compounds here, and I need their IC50 values.
# SYSTEM_NAME: KDR (Vascular Endothelial Growth Factor Receptor 2) (Homo sapiens, UniProt P35968)
# Sequence (P35968 20-1356): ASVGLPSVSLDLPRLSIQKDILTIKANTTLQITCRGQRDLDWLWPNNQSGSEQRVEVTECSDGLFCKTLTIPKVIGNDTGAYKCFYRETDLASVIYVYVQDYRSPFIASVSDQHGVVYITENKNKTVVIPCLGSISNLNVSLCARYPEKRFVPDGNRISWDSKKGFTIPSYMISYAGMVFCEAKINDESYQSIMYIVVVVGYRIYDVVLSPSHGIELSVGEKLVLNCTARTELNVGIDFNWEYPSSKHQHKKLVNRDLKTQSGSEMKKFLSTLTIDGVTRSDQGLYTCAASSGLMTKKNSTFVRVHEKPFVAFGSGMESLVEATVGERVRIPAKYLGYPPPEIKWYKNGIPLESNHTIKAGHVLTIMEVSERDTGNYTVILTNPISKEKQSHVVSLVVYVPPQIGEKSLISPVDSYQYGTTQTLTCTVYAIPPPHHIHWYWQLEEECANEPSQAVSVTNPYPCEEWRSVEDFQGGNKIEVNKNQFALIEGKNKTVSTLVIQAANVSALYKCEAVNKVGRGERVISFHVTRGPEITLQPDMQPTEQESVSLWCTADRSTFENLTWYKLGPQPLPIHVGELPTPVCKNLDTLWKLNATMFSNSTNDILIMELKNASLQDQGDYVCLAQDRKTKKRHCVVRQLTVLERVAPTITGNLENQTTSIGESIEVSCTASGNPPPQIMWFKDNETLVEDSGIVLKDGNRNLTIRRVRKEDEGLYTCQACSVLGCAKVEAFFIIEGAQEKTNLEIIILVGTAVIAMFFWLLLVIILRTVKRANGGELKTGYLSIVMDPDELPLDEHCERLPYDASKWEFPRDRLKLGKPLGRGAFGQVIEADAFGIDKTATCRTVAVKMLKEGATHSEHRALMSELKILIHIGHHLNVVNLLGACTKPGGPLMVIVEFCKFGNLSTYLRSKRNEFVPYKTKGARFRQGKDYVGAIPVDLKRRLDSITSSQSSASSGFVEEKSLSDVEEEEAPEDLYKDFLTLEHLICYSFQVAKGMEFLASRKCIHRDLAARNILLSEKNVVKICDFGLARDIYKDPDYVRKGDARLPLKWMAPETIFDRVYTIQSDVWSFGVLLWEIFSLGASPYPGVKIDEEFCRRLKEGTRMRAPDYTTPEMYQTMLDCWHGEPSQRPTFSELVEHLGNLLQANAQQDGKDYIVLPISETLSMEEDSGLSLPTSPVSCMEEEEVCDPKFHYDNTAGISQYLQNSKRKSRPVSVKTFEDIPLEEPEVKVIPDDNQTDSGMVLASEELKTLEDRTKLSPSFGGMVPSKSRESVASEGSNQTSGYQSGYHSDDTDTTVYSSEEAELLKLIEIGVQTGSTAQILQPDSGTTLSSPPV

Some solved entries appear below for comparison.
COMPOUND | SYSTEM_NAME | PARAMETER_MEASURED | READOUT_VALUE
CC=CCNCc1ccc(-c2ccc3ncnc(Nc4ccc(F)c(Cl)c4)c3c2)o1 [MS 39] | KDR (Vascular Endothelial Growth Factor Receptor 2) (Homo sapiens, UniProt P35968) | IC50 | > 10 µM
OCCCNCc1ccc(-c2ccc3ncnc(Nc4ccc(OCc5cccc(F)c5)c(Cl)c4)c3c2)o1 [MS42·di-p-toluenesulfonate] | KDR (Vascular Endothelial Growth Factor Receptor 2) (Homo sapiens, UniProt P35968) | IC50 | < 10 µM
OCC(O)CNCc1ccc(-c2ccc3ncnc(Nc4ccc(OCc5cccc(F)c5)c(Cl)c4)c3c2)o1 (stereo not shown) [MS31·dimethanesulfonate] | KDR (Vascular Endothelial Growth Factor Receptor 2) (Homo sapiens, UniProt P35968) | IC50 | < 10 µM

## Input # input compound: CC(=O)OCCNCc1ccc(-c2ccc3ncnc(Nc4ccc(OCc5cccc(F)c5)c(Cl)c4)c3c2)o1 ; wanted: its IC50
## Output < 10 µM
